# systemTested: 5-hydroxytryptamine receptor 2C (Homo sapiens, UniProt P28335)
# Sequence (P28335 whole entry): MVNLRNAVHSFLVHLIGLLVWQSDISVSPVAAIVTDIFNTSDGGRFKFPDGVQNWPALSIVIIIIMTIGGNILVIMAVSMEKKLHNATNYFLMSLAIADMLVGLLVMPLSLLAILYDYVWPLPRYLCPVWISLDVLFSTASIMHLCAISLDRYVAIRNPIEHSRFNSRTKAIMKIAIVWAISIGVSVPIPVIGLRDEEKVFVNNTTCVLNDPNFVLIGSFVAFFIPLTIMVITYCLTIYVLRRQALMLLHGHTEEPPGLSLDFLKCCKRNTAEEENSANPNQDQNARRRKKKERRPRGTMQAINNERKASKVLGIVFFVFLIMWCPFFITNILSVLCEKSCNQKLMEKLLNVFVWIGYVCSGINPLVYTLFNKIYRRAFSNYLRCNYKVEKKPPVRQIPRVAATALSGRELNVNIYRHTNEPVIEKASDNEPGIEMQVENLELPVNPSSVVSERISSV
Criterion: Ki strictly less than 1000 nM. Met: yes. Not met: no.

compound: O=C(CCCN1CCCN(c2ccccn2)CC1)c1ccc(F)cc1
systemTested: 5-hydroxytryptamine receptor 2C (Homo sapiens, UniProt P28335)
className: yes

compound: Fc1ccc(CCCCN2CCN(c3ccc(-c4ccccc4)cn3)CC2)cc1
systemTested: 5-hydroxytryptamine receptor 2C (Homo sapiens, UniProt P28335)
className: no

compound: Cc1ccc(N2CCN(CCCCc3ccc(F)cc3)CC2)nc1
systemTested: 5-hydroxytryptamine receptor 2C (Homo sapiens, UniProt P28335)
className: no

compound: Fc1ccc2c(c1)CC(CCN1CCCN(c3ccccn3)CC1)C2 (stereo not drawn)
systemTested: 5-hydroxytryptamine receptor 2C (Homo sapiens, UniProt P28335)
className: yes

compound: O=C(CCCN1C2CCC1CN(c1ccc(Cl)cn1)C2)c1ccc(F)cc1
systemTested: 5-hydroxytryptamine receptor 2C (Homo sapiens, UniProt P28335)
className: no

compound: Fc1ccc(CCCCN2CCN(c3cccc(-c4ccccc4)n3)CC2)cc1
systemTested: 5-hydroxytryptamine receptor 2C (Homo sapiens, UniProt P28335)
className: no

compound: O=C1c2ccc(F)cc2CC1CCN1CCCN(c2ccc(Cl)cn2)CC1 (stereo not drawn)
systemTested: 5-hydroxytryptamine receptor 2C (Homo sapiens, UniProt P28335)
className: yes

Kindly review the next compound as well.
Is Ki strictly under 1000 nM for the entry O=C(CCCN1CCCN(c2ccc(Cl)cn2)CC1)c1ccc(F)cc1 ?
yes

---

A set of compounds tested on 5-hydroxytryptamine receptor 7 (Homo sapiens), with measured pKi:
One number for each entry, as −log10 of the molar value.

compound: O=C1c2ccc(F)cc2CC1CCN1CCCN(c2ccc(Cl)cc2)CC1 (stereo unspecified)
systemTested: 5-hydroxytryptamine receptor 7 (Homo sapiens)
Sequence (P34969 whole entry): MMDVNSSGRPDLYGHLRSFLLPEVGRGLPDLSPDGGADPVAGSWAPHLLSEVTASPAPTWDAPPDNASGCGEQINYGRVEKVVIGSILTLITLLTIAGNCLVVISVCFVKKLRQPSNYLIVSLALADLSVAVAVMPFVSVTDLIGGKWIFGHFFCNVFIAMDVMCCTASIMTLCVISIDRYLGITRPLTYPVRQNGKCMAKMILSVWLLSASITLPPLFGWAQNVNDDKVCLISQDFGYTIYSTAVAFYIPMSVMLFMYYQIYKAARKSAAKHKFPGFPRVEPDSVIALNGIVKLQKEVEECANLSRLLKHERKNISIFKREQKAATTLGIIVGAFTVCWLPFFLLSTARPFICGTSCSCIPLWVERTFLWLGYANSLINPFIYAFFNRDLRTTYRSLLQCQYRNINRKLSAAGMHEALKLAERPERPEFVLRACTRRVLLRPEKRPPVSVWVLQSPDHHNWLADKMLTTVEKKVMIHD
val: 7.14

I'm hoping you can list pKi for every compound here, please.
1. Fc1ccc2c(c1)CC(CCN1CCCN(c3ccccn3)CC1)C2 (stereo unspecified)
2. Fc1ccc(CCCCN2CCN(c3cccnc3)CC2)cc1
3. Fc1ccc(CCCCN2C3CCC2CN(c2ccc(Cl)cn2)C3)cc1

[6.57, 6.57, 6.47]

Look up pKi for the entries below, preserving their order.
1. Cc1ccc(N2CCN(CCCCc3ccc(F)cc3)CC2)nc1
2. O=C1c2ccc(F)cc2CC1CCN1CCCN(c2ccccn2)CC1 (stereo unspecified)
3. O=C1c2ccc(F)cc2CC1CCN1CCCN(c2ccc(Cl)cn2)CC1 (stereo unspecified)
4. O=C(CCCN1CCCN(c2ccc(Cl)cn2)CC1)c1ccc(F)cc1
5. O=C(CCCN1C2CCC1CN(c1ccc(Cl)cn1)C2)c1ccc(F)cc1
6. Fc1ccc(CCCCN2CCN(c3cccc(-c4ccccc4)n3)CC2)cc1

1. 7.22
2. 7.24
3. 7.24
4. 6.67
5. 6.47
6. 6.80

---

# systemTested: Sodium-dependent serotonin transporter (Homo sapiens, UniProt P31645)
# Sequence (P31645 whole entry): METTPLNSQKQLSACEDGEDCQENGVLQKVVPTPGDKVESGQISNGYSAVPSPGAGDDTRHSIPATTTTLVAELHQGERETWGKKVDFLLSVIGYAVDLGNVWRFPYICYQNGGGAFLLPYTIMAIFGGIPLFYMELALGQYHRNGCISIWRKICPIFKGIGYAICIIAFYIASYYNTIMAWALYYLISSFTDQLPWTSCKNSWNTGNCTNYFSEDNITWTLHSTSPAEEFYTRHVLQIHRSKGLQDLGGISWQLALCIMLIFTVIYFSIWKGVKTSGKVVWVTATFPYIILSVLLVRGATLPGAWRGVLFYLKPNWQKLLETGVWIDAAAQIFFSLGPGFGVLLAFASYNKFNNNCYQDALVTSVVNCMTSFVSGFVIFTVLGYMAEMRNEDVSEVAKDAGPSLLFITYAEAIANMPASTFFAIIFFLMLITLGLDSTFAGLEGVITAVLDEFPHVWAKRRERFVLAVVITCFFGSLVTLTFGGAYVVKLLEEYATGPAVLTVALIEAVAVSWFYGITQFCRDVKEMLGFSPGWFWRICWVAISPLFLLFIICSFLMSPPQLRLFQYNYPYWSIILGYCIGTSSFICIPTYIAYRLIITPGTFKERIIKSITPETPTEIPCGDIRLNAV
propertyName: pKi
One number for each entry, as −log10 of the molar value.

// below: answered compounds
compound: Fc1ccc(CCCCN2C3CCC2CN(c2ccc(Cl)cn2)C3)cc1
pKi: 6.80

compound: O=C(CCCN1CCCN(c2ccc(Cl)cn2)CC1)c1ccc(F)cc1
pKi: 7.43

Lab note: each compound below needs its pKi filled in.
1. O=C(CCCN1C2CCC1CN(c1ccc(Cl)cn1)C2)c1ccc(F)cc1
2. O=C1c2ccc(F)cc2CC1CCN1CCCN(c2ccc(Cl)cc2)CC1 (centres undefined)
3. Fc1ccc2c(c1)CC(CCN1CCCN(c3ccccn3)CC1)C2 (centres undefined)
4. Fc1ccc(CCCCN2CCN(c3ccc(-c4ccccc4)cn3)CC2)cc1
5. Cc1ccc(N2CCN(CCCCc3ccc(F)cc3)CC2)nc1

6.62
7.62
7.19
5.57
5.52

Param item = O=C1c2ccc(F)cc2CC1CCN1CCCN(c2ccc(Cl)cn2)CC1 (centres undefined) ; retrieve measured pKi.
7.62
